Data origin: a melting point compilation (Tetko et al.; mined from patent text by program, amines drawn as free bases though some values may be those of a salt)

melting point: recorded values

Use these answered entries as a reference point.
compound	value.observed
CCCCCCC(C(=O)O)c1cccc(Oc2ccccc2C)c1O (stereo unspecified)	65 to 66 °C
Cc1noc(NS(=O)(=O)c2ccccc2-c2ccc(-c3nccs3)cc2)c1C	87 to 97 °C
Cn1c(=O)cc(-c2nc(-c3ccccc3)cs2)c2cc(C(O)c3ccc(Cl)cc3)ccc21 (stereo unspecified)	192 °C
O=C(NCC12CC3CC(CC(C3)C1)C2)c1cc(-c2ncccc2OCc2nnn[nH]2)ccc1Cl	122 to 126 °C
Cc1c(NC(=O)c2ccc(-c3ccc(Cl)cc3Cl)cc2F)ccc2cc(CN3CCCC3)cnc12	162 to 163 °C

### Prompt Could you share which melting point value was measured for C=CCOc1ccccc1OCC(O)CNC(C)C (stereo unspecified) ?
### Response 76 to 79 °C

### Prompt And "N#Cc1cc(C(=O)N2CCC[C@H](c3nc(-c4ccc(F)cc4)no3)C2)ccc1F" ?
### Response 144 to 146 °C

### Prompt Please do the same for "COC(=O)/C=C(\C)c1ccc2c(c1)C(C)(C)OC(=O)N2" as well.
### Response 131 to 132 °C

### Prompt What do you have for "CCCCCCCCOC(=O)c1nc(Cl)c(Cl)nc1N" ?
### Response 85 °C

### Prompt Next record, please: CCOC(=O)C1CCCN1C(=O)c1cc2c(cc1[N+](=O)[O-])OCO2 (stereo unspecified)
### Response 94 °C

###

Entries and their melting point values follow.

Sc1c(Br)cc(Br)cc1Br 114 to 116 °C
N#Cc1cnc2cc(-c3csc(CN4CCOCC4)c3)ccc2c1Nc1ccc(Cc2ccccc2)cc1 228 to 230 °C

### Prompt Need melting point, item "CCCc1c(OCCCOc2cc(NC(=O)C(=O)O)c(C(F)(F)F)cc2Cl)ccc(C(C)=O)c1O"
### Response 173 to 174 °C

###

readout: melting point

Answered cases to consult:
molecule	value.observed
Cc1cc2c(c(C)c1NC(=O)CC(C)(C)C)C(O)C(C)(C)O2 (stereo not given)	217 to 218 °C
N#CCc1cccc(-c2onc3ccccc23)c1	122 to 124 °C

### Prompt Query (molecule): "CCCCCCCCCCCCOCCOc1ccc(C(=O)OC)cc1" ; field requested: melting point
### Response 40 to 42 °C

### Prompt Another molecule: "CC(=O)NCCOc1ccc2c(-c3ccccc3F)noc2c1Cl"
### Response 154 to 155 °C

### Prompt Thanks! And CC(CBr)N1CCN(c2ccccn2)CC1 (stereo not given) ?
### Response 50 to 51 °C

### Prompt // repeat for "Cc1ccc(-c2c(Cl)ncn2-c2ccc(S(C)(=O)=O)cc2)cc1F" and report
### Response 176 °C

### Prompt Try this molecule next: "COC(=O)N(CC(=O)O)C(=O)c1c(Br)ccc2c(C(F)(F)F)c(OC)ccc12"
### Response 164 to 166 °C

### Prompt Consider next the molecule "Nc1ccc(Cl)c(N=C2NCCN2)c1" in the same way.
### Response 154 to 155 °C

### Prompt What would you report for "COC(=O)c1cc(C(=O)OC)cc(S(=O)(=O)Nc2ccc(F)cc2C(F)(F)F)c1" ?
### Response 142 to 150 °C

###

readout: melting point

compound	melting point
CC(C)(C)OC(=O)N1CCCN(CC2=Nc3cccc4c(=O)[nH]nc(c34)N2)CC1	219 to 221 °C

### Prompt Recorded melting point for O=C1CCC(N2C(=O)c3cccc(CNC(=O)c4cc5ccccc5cn4)c3C2=O)C(=O)N1 (centres undefined) , please?
### Response 198 to 200 °C

### Prompt Next compound up: "O=C1COc2cc(NCC(=O)N3CCC(Oc4ccc(Cl)cc4)CC3)ccc2N1"
### Response 207 to 210 °C

### Prompt Follow-up entry: COc1ccc2c(c1OCc1ccccc1)CC(C(=O)O)N(C(=O)Cc1c(Cl)cccc1Cl)C2 (racemic)
### Response 205 to 207 °C

### Prompt Moving on to the next compound: "CCOc1nn(C(=O)NS(=O)(=O)c2c(C(=O)OC)csc2C)c(=O)n1C"
### Response 163 °C

###

readout: melting point

The following molecules have reported results that may help.
molecule	value.observed
CCN1CCN(Cc2nc3sc(Br)cc3c(=O)n2-c2ccccc2Cl)CC1	155 to 158 °C
CC1(CN2CCC(C(=O)c3ccc(C(F)(F)F)cc3)CC2)Cn2cc([N+](=O)[O-])nc2O1 (centres undefined)	172 to 174 °C
Cc1c(N)cccc1C(=O)c1ccc(Cl)cc1	65 °C
c1ccc(OCCSCc2nnc(-c3ccc(OCc4ccncc4)cc3)o2)cc1	80 to 90 °C
O=C(NCC1CC(=O)N(Cc2ccccc2)C1)Nc1ccc(Cl)cc1 (centres undefined)	139 to 140 °C
CC(=O)NC(CSSc1ccccc1C(=O)Nc1ccc(S(N)(=O)=O)cc1)C(=O)O (centres undefined)	218 to 220 °C

### Prompt I would be grateful if you could share the reported melting point for "O=C1CCc2c1ccc(F)c2F" .
### Response 28 to 32 °C

###

readout: melting point

Observe how each entry below is paired with its result.
compound	melting point
OCCOc1ccc2c(-c3ccccc3F)noc2c1Cl	112 °C
CON1C(C)(C)CC(OC(=O)c2ccc(C(=O)OC3CC(C)(C)N(OC)C(C)(C)C3)cc2)CC1(C)C	179 to 181 °C

### Prompt Name the reported melting point value associated with the compound "CC(C)S(=O)(=O)Nc1ccc([C@@H](C)C(=O)N[C@@H](C)C(N)=O)cc1"
### Response 132 to 135 °C

### Prompt Item: "CCc1c(CCC(=O)OC)ccc2c1OCO2"
### Response 44 to 46 °C

### Prompt Same thing, different compound: "COC(=O)CCCCCCCCCCCCCCCCCCCN1C(=O)c2ccccc2C1=O"
### Response 86.5 to 87.5 °C

###

readout: melting point

Known melting point results, listed for orientation:
compound	melting point
CNC(=O)CCSCc1csc(NC(N)=NCC(F)(F)F)n1	152 to 154 °C
CCCCc1oc2ccccc2c1C(=O)Nc1ccc2c(Br)c(OC(Cc3ccccc3)C(=O)O)ccc2c1 (configuration not stated)	191 to 195 °C
CCOc1ccc(C=CCCCCC(=O)O)cc1	62 to 63 °C

### Prompt Given Cc1ccc(CCC(C)(C)NCC(O)c2cc3ccccc3o2)cc1 (configuration not stated) , state its recorded melting point.
### Response 121 to 122 °C

### Prompt Can you handle "O=S(=O)(NCc1ccccc1)c1cc(F)c2cccnc2c1O" next?
### Response 186 °C

### Prompt Input "CC(C)(C)c1cccc(S(=O)(=O)n2c(Cc3ccc(C(=O)O)cc3)cc3c(Cl)c(Cl)ccc32)c1"
### Response 216 °C

### Prompt Try this compound too: "O=[N+]([O-])c1cccc(CN(CCO)CCO)c1"
### Response 71 to 72 °C

### Prompt Try this compound too: O=S(=O)(c1ccc(Cl)cc1)C(C/C=C\CO)c1cc(F)ccc1F (configuration not stated)
### Response 60 to 63 °C

### Prompt Quick one: "Cc1nc(-c2ccc(OC(F)(F)F)cc2)ccc1CO"
### Response 68 to 69 °C

### Prompt Same again, this time with "CC(C)(NC(=O)CCn1ccnc1)c1ccc(Cl)cc1"
### Response 154 to 155 °C

### Prompt Also need "CCc1ccc2sc3cc(C#N)ccc3c(=O)c2c1" , thanks.
### Response 198 to 215 °C

###

Residues, ends and D or L forms follow the SMILES beside them. *: point of attachment. Cbz = O=C(OCc1ccccc1)*; OtBu = CC(C)(C)O*; βAla = NCCC(=O)O
readout: melting point

Use these answered entries as a reference point.
compound	melting point
COc1ccc(/C=C(\C#N)c2ccc(Cl)cc2Cl)cc1OC1CCCC1	105 to 107 °C
CCOC(c1cccc(OCc2nc(-c3ccccc3)oc2C)c1)c1ccc(OC)cc1OCC(=O)O (centres undefined)	129 to 130 °C
CC1(C)OCCN1C(=O)C(Cl)Cl	113 to 115 °C
CNC(=O)c1c(N)cc(Cl)cc1Cl	159 to 162 °C
CCOC(=O)CN=C(c1ccccc1)c1cc(Cl)ccc1N	130 to 135 °C

### Prompt Consider the compound shown here: Cc1cc(C(F)(F)F)nn1CC(=O)N1CCC(c2nc(NC(=O)C3CCCc4ccccc43)cs2)CC1 (centres undefined) What is its recorded melting point?
### Response 179 to 181 °C

### Prompt Also CC(C)C(NC(=O)C(CC(=O)OC(C)(C)C)NC(=O)CCNC(=O)OCc1ccccc1)C(=O)OC(C)(C)C (centres undefined) ({Cbz-βAla}-Asp(OtBu)-Val-OtBu; configuration not given here) , if possible.
### Response 126 °C

### Prompt Request: "Cc1ccc(-c2nc(-c3cnccc3C)sc2F)cc1"
### Response 96 °C

### Prompt Request: "CC(C)CSc1cc(C(=O)O)cc(S(N)(=O)=O)c1Oc1ccccc1"
### Response 193 to 194 °C

### Prompt What do you have for "CCCCc1oc2ccccc2c1-c1ncc(-c2ccc3c(Br)c(OCC#N)ccc3c2)o1" ?
### Response 144 to 146 °C

### Prompt Would you mind doing "COC(=O)c1cnc(OC)c([N+](=O)[O-])c1" as well?
### Response 118 to 119 °C

### Prompt O=C(CCCCC1CCSS1)N1CCc2ccccc21 (centres undefined) ?
### Response 65 to 66 °C

### Prompt Consider next the compound "Cc1c(NC(=O)c2ccc(OCC3CC3)cc2)ccc2cc(CNCC(C)(C)O)n(C)c12" in the same way.
### Response 180 °C
